- protocol-notes: pH of solutions in distilled water
- Format: physicochemical
- conditions: 1.6 g/liter in distilled water
Structures can show the parent of a compound that is named as a salt.
quantity-measured: pH
Write the value as a bare number.

(Q) Form field: reported pH of CCCNC(C)C(=O)c1ccc(N)cc1 (centres unmarked) [CRL 41 213]
(A) 2.5

(Q) Form field: reported pH of CC(C(=O)c1ccc(N)cc1)N1CCOCC1 (centres unmarked) [CRL 41 237, dihydrochloride]
(A) 3.0

(Q) Form field: reported pH of CC(C(=O)c1ccc(N)cc1)N1CCCC1 (centres unmarked) [CRL 41 222, dihydrochloride]
(A) 3.0

(Q) Form field: reported pH of CC(NC1CC1)C(=O)c1ccc(N)cc1 (centres unmarked) [CRL 41 246]
(A) 3.5

(Q) Form field: reported pH of CC(C(=O)c1ccc(N)cc1)N(C)C (centres unmarked) [CRL 41 233]
(A) 3.0

###

- protocol-notes: pH of solutions in distilled water
- Format: physicochemical
- conditions: 50 g/liter in distilled water
Counter-ions that a name gives are not always drawn.
quantity-measured: pH
Write the value as a bare number.

(Q) Form field: reported pH of CC(C(=O)c1ccc(N)cc1)N1CCOCC1 (stereo not drawn) [CRL 41 237, dihydrochloride]
(A) 1.0

(Q) Form field: reported pH of CC(C(=O)c1ccc(N)cc1)N1CCSCC1 (stereo not drawn)
(A) 1.5

(Q) Form field: reported pH of CCNC(C)C(=O)c1ccc(N)cc1 (stereo not drawn)
(A) 1.5

(Q) Form field: reported pH of CNC(C)C(=O)c1ccc(N)cc1 (stereo not drawn) [CRL 41 218, dihydrochloride]
(A) 4.0

(Q) Form field: reported pH of CC(C)NC(C)C(=O)c1ccc(N)c(Cl)c1 (stereo not drawn) [CRL 41 221, hydrochloride]
(A) 4.0

(Q) Form field: reported pH of CC(C(=O)c1ccc(N)cc1)N(C)C (stereo not drawn)
(A) 1.0

(Q) Form field: reported pH of CC(C(=O)c1ccc(N)cc1)N1CCN(C)CC1 (stereo not drawn)
(A) 1.0

(Q) Form field: reported pH of CC(C(=O)c1ccc(N)cc1)N1CCCCC1 (stereo not drawn)
(A) 1.0

(Q) Form field: reported pH of CCCNC(C)C(=O)c1ccc(N)cc1 (stereo not drawn)
(A) 1.0

###

- Test system: dogs
- protocol-notes: Cardiovascular study in anesthetized dogs
- Type: in vivo, dog
Counter-ions that a name gives are not always drawn.
quantity-measured: Vasodilator (conclusion)

CC(C(=O)c1ccc(N)cc1)N1CCCC1 (stereo not shown) [CRL 41 222, dihydrochloride] :: vasodiating properties
CC(NC1CC1)C(=O)c1ccc(N)cc1 (stereo not shown) :: vasodiating properties
CCNC(C)C(=O)c1ccc(N)cc1 (stereo not shown) :: vasodiating properties

###

- Tested on: gravid White New Zealand female rabbits
- protocol-notes: Teratogenicity in gravid White New Zealand rabbits
- Type: in vivo, rabbit
- conditions: 10 mg/kg daily, day 5 to day 18 of gestation
Where a name gives a salt, the structure may show the parent alone.
I'd appreciate it if you could supply Total foetuses (live) values for the items below.
Write the value as a bare number.

(Q) Form field: reported Total foetuses (live) of CC(C)NCCCC(=O)c1ccc(N)cc1 [A 1, reference compound]
(A) 87

(Q) Form field: reported Total foetuses (live) of Nc1ccc(C(=O)CN2CCCCC2)cc1 [A 18, reference compound]
(A) 51

(Q) Form field: reported Total foetuses (live) of CC(C)NC(C)C(=O)c1ccc(N)cc1 (stereo not shown) [CRL 41 153, dihydrochloride]
(A) 88

(Q) Form field: reported Total foetuses (live) of CC(C)NC(C)C(=O)c1ccc(N)c(Cl)c1 (stereo not shown) [CRL 41 221, hydrochloride]
(A) 87

(Q) Form field: reported Total foetuses (live) of CC(C(=O)c1cccc(N)c1)N1CCOCC1 (stereo not shown)
(A) 91

(Q) Form field: reported Total foetuses (live) of Nc1ccc(C(=O)CCN2CCSCC2)cc1 [A 13, reference compound]
(A) 43

(Q) Form field: reported Total foetuses (live) of CCNCCC(=O)c1ccc(N)cc1 [A 7, reference compound]
(A) 79

(Q) Form field: reported Total foetuses (live) of CCCNC(C)C(=O)c1cccc(N)c1 (stereo not shown)
(A) 92

(Q) Form field: reported Total foetuses (live) of Nc1cccc(C(=O)CN2CCCC2)c1 [A 21, reference compound]
(A) 78

(Q) Form field: reported Total foetuses (live) of Nc1cccc(C(=O)CN2CCOCC2)c1 [A 17, reference compound]
(A) 46
